Ref: patent US7777038B2

measured endpoint: melting point

> print(dat)
                                   compound        assay.value
1  CCN1C(=O)CCc2c(CC3SC(=O)NC3=O)ccc(OC)c21 (stereo not shown) [Example 147]      179 to 181 °C
2  COC(=O)Nc1ccc(CN2C(=O)CCc3c(CC4SC(=O)NC4=O)ccc(OC)c32)cc1 (stereo not shown) [Example 230]  136.3 to 138.6 °C
3  COc1ccc(CCCC2SC(=O)NC2=O)c2ccc(=O)n(C)c12 (stereo not shown) [Example 3]      172 to 175 °C
4  O=C1NC(=O)C(Cc2cc(=O)[nH]c3ccccc23)S1 (stereo not shown) [Example 111]      290 to 291 °C
5  COC(=O)CN1C(=O)SC(Cc2ccc(OC)c3c2ccc(=O)n3C)C1=O (stereo not shown) [Example 43]      182 to 184 °C

Prompt: Data request, read-out melting point, for COc1ccc(C2SC(=O)NC2=O)c2ccc(=O)n(C)c12 (stereo not shown) [Example 4]
Response: 255 °C (dec.)

Prompt: Data request, read-out melting point, for COc1ccc(CC2SC(=O)NC2=O)c2ccc(=O)n(C)c12 (stereo not shown) [Example 1]
Response: 254 to 255 °C

Prompt: Data request, read-out melting point, for COc1ccc(CC2SC(=O)NC2=O)c2c1N(Cc1ccc(NC(C)=O)cc1)C(=O)CC2 (stereo not shown) [Example 229]
Response: 215.2 to 217.8 °C

Prompt: Data request, read-out melting point, for O=C1NC(=O)C(Cc2ccc3c(c2)N(Cc2ccc(-c4ccccc4)cc2)C(=O)CC3)S1 (stereo not shown) [Example 18]
Response: 213.2 to 213.7 °C

Prompt: Data request, read-out melting point, for CCNC(=O)Nc1ccc(CN2C(=O)CCc3c(CC4SC(=O)NC4=O)ccc(OC)c32)cc1 (stereo not shown) [Example 227]
Response: 195.7 to 196.9 °C

Prompt: Data request, read-out melting point, for CN1C(=O)SC(Cc2cc(=O)n(C)c3ccccc23)C1=O (stereo not shown) [Example 113]
Response: 143 to 145 °C

Prompt: Data request, read-out melting point, for COc1ccc(CC2SC(=S)NC2=O)c2c1N(CCC(C)C)C(=O)CC2 (stereo not shown) [Example 1315]
Response: 139.5 to 141 °C

Prompt: Data request, read-out melting point, for COc1ccc(CCC2SC(=O)NC2=O)c2ccc(=O)n(C)c12 (stereo not shown) [Example 2]
Response: 222 to 224 °C

Prompt: Data request, read-out melting point, for CCCCCOC(=O)Nc1ccc(CN2C(=O)CCc3c(CC4SC(=O)NC4=O)ccc(OC)c32)cc1 (stereo not shown) [Example 23]
Response: 98 to 102 °C

Prompt: Data request, read-out melting point, for O=C1NC(=O)C(Cc2cc3ccccc3n(Cc3ccc(-c4ccccc4)cc3)c2=O)S1 (stereo not shown) [Example 17]
Response: 220.4 to 221.8 °C

* * *

measured endpoint: melting point

Prompt: Data request, read-out melting point, for COc1ccc(CC2SC(=O)NC2=O)c2c1N(Cc1ccc(C(=O)Nc3ccc(C(C)C)cc3)cc1)C(=O)CC2 (stereo not shown)
Response: 243 to 244 °C

Prompt: Data request, read-out melting point, for "COc1ccc(C=C2SC(=O)N(C)C2=O)c2ccc(=O)n(C)c12"
Response: 270 °C (dec.)

Prompt: Data request, read-out melting point, for COc1ccc(CC2SC(=O)NC2=O)c2c1N(Cc1ccc([N+](=O)[O-])cc1)C(=O)CC2 (stereo not shown)
Response: 246.5 to 246.6 °C
